- TARGET OR SYSTEM: HLA-DRB1*1101 (Homo sapiens, UniProt P01903+P01911, A100R/A169T/A87E/I96F/K41T/L162R/M171V/P40S/Q125H/Q178H/Q39Y/Q99D/R42S/S66Y/T262R/V115G/W38E)
- Sequence (P01903 26-254 limits assumed, other chains not shown): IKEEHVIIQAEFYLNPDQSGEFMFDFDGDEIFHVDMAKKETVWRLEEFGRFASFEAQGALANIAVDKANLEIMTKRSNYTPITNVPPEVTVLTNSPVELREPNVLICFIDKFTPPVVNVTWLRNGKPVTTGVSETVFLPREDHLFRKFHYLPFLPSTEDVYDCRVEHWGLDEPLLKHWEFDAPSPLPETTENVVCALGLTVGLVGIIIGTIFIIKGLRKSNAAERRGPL
- ASSAY PROTOCOL: biochemical
- Format: binding
- RECORDED CONDITIONS: binding inhibition assay; NB = non-binder (no dose-dependent inhibition); read-out: DRB1*1101 IC50
Where a SMILES comes first, the peptide text is derived from it.
EXPERIMENTAL READOUT: IC50 (nM)
Please respond with the number in nM and leave the unit unwritten.

Q) // lookup IC50 for CC[C@H](C)[C@H](NC(=O)[C@H](Cc1ccc(O)cc1)NC(=O)[C@@H](NC(=O)[C@H](Cc1ccc(O)cc1)NC(=O)[C@H](CO)NC(=O)CNC(=O)[C@H](CCSC)NC(=O)[C@H](CCCCN)NC(=O)[C@H](CCCCN)NC(=O)[C@H](CC(N)=O)NC(=O)[C@H](CC(C)C)NC(=O)[C@H](CC(N)=O)NC(=O)[C@@H](NC(=O)[C@H](CC(C)C)NC(=O)[C@H](CC(C)C)NC(=O)[C@H](CC(C)C)NC(=O)[C@H](CCC(=O)O)NC(=O)[C@@H](N)CO)[C@@H](C)O)[C@@H](C)CC)C(N)=O [RH5_010B] (H-SELLLTNLNKKMGSYIYI-NH2)
A) 204

Q) I'd like to know its IC50. The molecule in question is CC[C@H](C)[C@H](NC(=O)[C@H](Cc1ccccc1)NC(=O)[C@H](Cc1c[nH]cn1)NC(=O)[C@H](CC(=O)O)NC(C)=O)C(=O)N[C@@H](CCC(=O)O)C(=O)N[C@@H](C)C(=O)N[C@@H](CO)C(=O)N[C@@H](CCCCN)C(=O)N[C@@H](CCCCN)C(=O)N[C@@H](CCC(=O)O)C(=O)N[C@@H](CO)C(=O)N[C@@H](CCC(N)=O)C(=O)N[C@@H](CC(C)C)C(=O)N[C@@H](CC(C)C)C(N)=O [EBA175_006] (Ac-DHFIEASKKESQLL-NH2)
A) 2870

Q) Suppose we examine the molecule CC[C@H](C)[C@H](NC(=O)[C@H](CCC(=O)O)NC(=O)[C@@H](NC(=O)[C@H](CCCCN)NC(=O)[C@H](CCCCN)NC(C)=O)C(C)C)C(=O)N[C@@H](Cc1ccccc1)C(=O)N[C@@H](CCCNC(=N)N)C(=O)N[C@@H](CO)C(=O)N[C@@H](CCCNC(=N)N)C(=O)N[C@@H](Cc1ccccc1)C(=O)N[C@@H](CO)C(=O)N[C@@H](CO)C(=O)N[C@@H](CCCCN)C(=O)N[C@@H](CC(C)C)C(=O)N[C@@H](CCC(N)=O)C(=O)N[C@@H](CS)C(=O)N[C@@H](CCC(N)=O)C(N)=O [RIPR_011] (Ac-KKVEIFRSRFSSKLQCQ-NH2) ; what IC50 value has been reported?
A) 9220

Sourced from paper PMC8294059
